Test system: SARS-CoV-2
Experiment: Inhibition of cell viability relative to arbidol control (inhibition index > 1 indicates higher activity) measured by fluorescence (OD590nm) in Vero E6 cells infected with SARS-CoV-2 (strain BavPat1) at MOI 0.002 after 72hrs
Format: functional, Chlorocebus sabaeus, Vero C1008
In all, about 1,500 compounds were measured (“Inhibition index”: median about 0.17, highest 2% from about 1.3 on). This excerpt belongs to a sample that is enriched for the highest values.

- compound: "CCOc1ccc2nc(S(N)(=O)=O)sc2c1 [ETHOXZOLAMIDE]"
  Inhibition index: 2.099
- compound: "C=C[C@H]1CN2CC[C@H]1C[C@H]2[C@H](OC(=O)OCC)c1ccnc2ccc(OC)cc12 [QUININE ETHYLCARBONATE]"
  Inhibition index: 0.6435
- compound: "C=C[C@H]1CN2CC[C@H]1C[C@@H]2[C@@H](O)c1ccnc2ccc(OC)cc12.Cl.O"
  Inhibition index: 1.411
- compound: "Cc1ccc(C(=O)C(C)CN2CCCCC2)cc1.Cl (stereo not drawn) [TOLPERISONE HYDROCHLORIDE]"
  Inhibition index: 1.172
- compound: "CN[C@@H]1[C@H](O)[C@H](NC)[C@H]2O[C@@]3(O)C(=O)C[C@@H](C)O[C@H]3O[C@@H]2[C@H]1O.Cl.Cl"
  Inhibition index: 0.1494
- compound: "CC12CC3CC(C)(C1)CC(N)(C3)C2.Cl [MEMANTINE HYDROCHLORIDE]"
  Inhibition index: 0.5095
- compound: "CC(Cc1ccccc1)NCCC(c1ccccc1)c1ccccc1.CC(O)C(=O)O (stereo not drawn)"
  Inhibition index: -0.1094
- compound: "C[C@]12CCC3=C4CCC(=O)C=C4CC[C@H]3[C@@H]1CC[C@@]2(O)CC#N"
  Inhibition index: 0.1822
- compound: "Cl.Nc1nc2ccc(OC(F)(F)F)cc2s1"
  Inhibition index: 0.04491
- compound: "CCc1ccc(C(=O)C(C)CN2CCCCC2)cc1.Cl (stereo not drawn)"
  Inhibition index: 1.254
- compound: "NC12CC3CC(CC(C3)C1)C2.NC12CC3CC(CC(C3)C1)C2.O=C(O)/C=C\\C(=O)O"
  Inhibition index: 0.02174
- compound: "COc1cccc2c1C(=O)c1c(O)c3c(c(O)c1C2=O)C[C@@](O)(C(=O)CO)C[C@@H]3O[C@H]1C[C@H](N)[C@H](O)[C@H](C)O1.Cl [DOXORUBICIN HYDROCHLORIDE]"
  Inhibition index: -0.06911
- compound: "CC[N+](C)(C)Cc1ccccc1Br.Cc1ccc(S(=O)(=O)[O-])cc1 [BRETYLIUM TOSYLATE]"
  Inhibition index: 0.2627

----------
Test system: SARS-CoV-2
Experiment: Inhibition of cell viability relative to arbidol control (inhibition index > 1 indicates higher activity) measured by fluorescence (OD590nm) in Vero E6 cells infected with SARS-CoV-2 (strain BavPat1) at MOI 0.002 after 72hrs
Format: functional, Chlorocebus sabaeus, Vero C1008
The full ranking holds about 1,500 compounds; the median of “Inhibition index” is about 0.17, and the highest 2% start at about 1.3. The sample as a whole holds a higher share of the highest values than the screen did.
Label Y when Inhibition index is at or above 0.1; otherwise label N.

- compound: "CC(C)NCC(O)COc1cccc2[nH]c3ccccc3c12 (stereo not drawn)"
  class name: "Y"
- compound: "CC(=O)[N-]S(=O)(=O)c1ccc(N)cc1.O.[Na+] [SULFACETAMIDE SODIUM]"
  class name: "N"
- compound: "CC(=O)OCC1=C(C(=O)[O-])N2C(=O)[C@@H](NC(=O)Cc3cccs3)[C@H]2SC1.[Na+] [CEPHALOTHIN SODIUM]"
  class name: "Y"
- compound: "C#CCN(C)[C@H](C)Cc1ccccc1.Cl [SELEGILINE HYDROCHLORIDE]"
  class name: "Y"
- compound: "O=C(O[C@H]1C[N+]2(CCCOc3ccccc3)CCC1CC2)C(O)(c1cccs1)c1cccs1.[Br-] [ACLIDINIUM BROMIDE]"
  class name: "Y"
- compound: "Cl.N/C(=N\\C(=O)c1nc(Cl)c(N)nc1N)NCc1ccccc1 [BENZAMIL HYDROCHLORIDE]"
  class name: "N"
- compound: "Cl.N[C@@H]1CCCCN(c2c(F)cc3c(=O)c(C(=O)O)cn(C4CC4)c3c2Cl)C1 [BESIFLOXACIN HYDROCHLORIDE]"
  class name: "N"
- compound: "CC(=O)S[C@@H]1CC2=CC(=O)CC[C@]2(C)[C@H]2CC[C@@]3(C)[C@@H](CC[C@@]34CCC(=O)O4)[C@H]12"
  class name: "Y"
